target: GPRC6A (Homo sapiens)
Sequence (Q5T6X5 19-926): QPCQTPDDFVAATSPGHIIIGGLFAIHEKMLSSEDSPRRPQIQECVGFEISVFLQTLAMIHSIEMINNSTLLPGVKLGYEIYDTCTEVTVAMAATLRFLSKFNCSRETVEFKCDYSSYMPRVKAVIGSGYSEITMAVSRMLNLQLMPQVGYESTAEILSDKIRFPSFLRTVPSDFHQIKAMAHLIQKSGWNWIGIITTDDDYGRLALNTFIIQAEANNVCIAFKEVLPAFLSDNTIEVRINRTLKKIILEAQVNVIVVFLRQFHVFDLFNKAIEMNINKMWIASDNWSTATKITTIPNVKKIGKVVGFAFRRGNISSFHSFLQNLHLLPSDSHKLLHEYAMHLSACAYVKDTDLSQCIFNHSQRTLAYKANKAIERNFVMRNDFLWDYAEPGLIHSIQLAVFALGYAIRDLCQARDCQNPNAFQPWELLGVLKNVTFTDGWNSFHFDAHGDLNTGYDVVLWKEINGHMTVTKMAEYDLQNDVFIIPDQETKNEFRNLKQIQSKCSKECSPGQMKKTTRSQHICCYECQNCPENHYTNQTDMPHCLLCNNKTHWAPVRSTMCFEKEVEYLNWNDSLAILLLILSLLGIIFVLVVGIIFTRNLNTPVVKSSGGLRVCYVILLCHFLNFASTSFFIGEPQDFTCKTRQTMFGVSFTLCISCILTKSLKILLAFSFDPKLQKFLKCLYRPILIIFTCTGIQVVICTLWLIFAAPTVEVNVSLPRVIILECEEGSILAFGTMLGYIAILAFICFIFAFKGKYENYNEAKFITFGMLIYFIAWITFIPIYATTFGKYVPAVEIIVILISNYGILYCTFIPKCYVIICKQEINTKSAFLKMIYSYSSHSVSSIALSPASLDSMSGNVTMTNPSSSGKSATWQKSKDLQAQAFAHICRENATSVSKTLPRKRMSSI
valueType: EC50 (µM)

compound: CN(C)C(=N)N=C(N)N [metformin, 1,1-dimethylbiguanide]
valueType: EC50
assayValue: 284
